GI50 listing for selected compounds.
System: OVCAR-4
method: NCI tumour cell line growth inhibition, 48 h
Calls of active or inactive are those of the source. No stated cut-off is given here; in the data, active = GI50 up to about 1.1 µM and inactive = higher.
property: GI50

compound	measuredResult
NNC(=O)CC(=O)Nc1ccc(Cl)cc1	> 100 µM (inactive)
N#Cc1cccc(-n2[nH]c(=O)ccc2=O)c1	> 100 µM (inactive)
N=C(N)N/N=C/c1c(-c2ccc(Cl)c([N+](=O)[O-])c2)nc2sccn12	1.79 µM (inactive)
N#CC(c1cc(Cl)ncn1)c1nc2ccccc2s1 (configuration not stated)	6.46 µM (inactive)
O=C(N(O)c1ccccc1Cl)C(O)(c1ccccc1)c1ccccc1	> 100 µM (inactive)
c1ccc2c3c([nH]c2c1)[C@H]1C2CCCCN2CN1CC3 (some centres not stated)	> 100 µM (inactive)
CN(C)CCCNCc1cccc2ccccc12	> 100 µM (inactive)
Oc1nc2nc3ccccc3nc2nc1O	> 100 µM (inactive)
CC1(C)O[C@@H]2[C@@H](COC(=O)c3ccccc3)C[C@@H](C#N)[C@@H]2O1	> 100 µM (inactive)
N#Cc1c(N2CCCC2)ncn(Cc2ccccc2)c1=O	> 100 µM (inactive)
O=C(O)CCSCc1ccccc1	> 100 µM (inactive)
CC1=NN2C(=N)/C(=C/c3ccccc3)C(=O)N=C2S1	> 100 µM (inactive)

###

System: CAKI-1
method: NCI tumour cell line growth inhibition, 48 h
Active and inactive are the calls of the source. No stated cut-off is given here; in the data, active = GI50 up to about 1.1 µM and inactive = higher.
Possible outcomes: active, inactive

compound	assignedCategory
C=CCNC(=O)NC1=CSC2=NC(=O)C3(NN12)c1ccccc1-c1ccccc13	inactive
O=c1[nH]c2ccccc2nc1CBr	inactive
O=[N+]([O-])c1cc(Cl)ccc1S(=O)(=O)c1cc(Cl)cc2c1NCCC2	inactive
CCCC(=O)Nc1ncnc2c1ncn2C1OC2COP(=O)(O)OC2C1OC(=O)CCC (configuration not stated)	inactive
COc1ccc(C2N(c3ccc(F)c([N+](=O)[O-])c3)C(=O)N3C(c4ccc(OC)cc4)N(c4ccc(F)c([N+](=O)[O-])c4)C(=O)N23)cc1 (configuration not stated)	inactive
CCCCCCc1cc2c(C)c(C)c(=O)oc2cc1OCCCOc1cc2oc(=O)c(C)c(C)c2cc1CCCCCC	inactive
COc1ccc(-c2oc3cc(O)c(OC)c(O)c3c(=O)c2O)cc1	inactive
N#CCCC1(CCC#N)CCCCCCCCC(CCC#N)(CCC#N)C(=O)C1=O	inactive
Cc1c(/C=N\NC(=S)N(C)CCN(C)C(=S)N/N=C\c2c(C)n(C)n(-c3ccccc3)c2=O)c(=O)n(-c2ccccc2)n1C	inactive
N/C(CCSCCSCC/C(N)=N\O)=N\O	inactive
[N-]=[N+]=NC1C(O)C(CO)OC1n1cnc2c(N)ncnc21 (configuration not stated)	inactive
CC(C)(C)n1c(=O)n2n(c1=O)C1c3cccc4cccc(c34)C2C2c3cccc4cccc(c34)C1n1c(=O)n(C(C)(C)C)c(=O)n12	inactive
NC(=O)c1ccc(/N=N/O)nc1	inactive
S=c1c2ccccc2c(=S)n2n1CC=CC2	inactive
Cc1c2c(cc3c1[nH]c1ccccc13)C=NCC2	inactive
CCOC(=O)C(=Cc1[nH]c2ccccc2c1-c1c[nH]c2ccccc12)C(=O)OCC	inactive
Cc1ccc2cccc(-c3cccc4ccccc34)c2n1	inactive
CCC(=O)Nc1cccc(NC(=O)c2c(Cl)c(Cl)c(Cl)c(Cl)c2-c2nc3ccccc3[nH]2)c1	inactive
COC(=O)c1c(O)c2c(c3c1OC(C)(C)CC3)OC(C)(C)CC2	inactive
CC(=O)NC(CCCNC(=O)OCc1ccccc1)C(=O)NCc1ccccc1 (configuration not stated)	inactive
OC1CC2CCC(C1)N2CCCN1c2ccccc2Sc2ccc(Cl)cc21 (configuration not stated)	inactive
C#CCNC(Cc1ccccc1)C(=O)O (configuration not stated)	inactive
O=C1c2ccccc2-c2c1c(-c1ccc(F)cc1)nc1ccc3ccccc3c21	inactive
CCCCc1ccc(N2C(=O)c3cccnc3S2(=O)=O)cc1	inactive
CC1=NN(C(=O)c2ccc(Cl)cc2)C(=O)/C1=C/c1cccc(O)c1	inactive
N=C(N)Nc1ncccc1[N+](=O)[O-]	inactive
O=C(c1ccccc1)C(c1ccccc1)C1(O)C(=O)Nc2c(Cl)cc(Cl)cc21 (configuration not stated)	inactive
N#CC(c1cc2c(cc1Br)OCO2)N1CCOCC1 (configuration not stated)	inactive
COC1C=COC2(C)Oc3c(C)c(O)c4c(O)c(c(C5SCCS5)c(O)c4c3C2=O)NC(=O)C(C)=C/C=C\C(C)C2OC(C)(C)OC(C2C)C(C)C(OC(C)=O)C1C (configuration not stated)	inactive
N#Cc1cccc(-n2[nH]c(=O)ccc2=O)c1	inactive
C=C1C(=O)C23CC1CCC2C12CO[C@@]3(O)[C@@H](O)C1C(C)(C)C=CC2=O (some centres not stated)	inactive
C[C@]12CC[C@H](OCCC#N)CC1=CC[C@@H]1C2CC[C@]2(C)/C(=N/OCCC#N)CCC12 (some centres not stated)	inactive
COc1ccc(/C(=N/N=c2[nH]c3ccccc3[nH]2)C(=O)O)cc1	inactive
O=C(Oc1ccccc1)c1cc2cc(CCl)ccc2oc1=O	inactive
COP1(=O)OCc2cnccc2O1 (configuration not stated)	inactive
CC[C@@]1(OC(=O)C(N)CCCCN)C(=O)OCc2c1cc1n(c2=O)Cc2cc3ccccc3nc2-1 (some centres not stated)	active
O=C(Cc1ccccc1)NCCCN(CCCCN(CCCNC(=O)Cc1ccccc1)C(=O)OCc1ccccc1)C(=O)OCc1ccccc1	inactive
CC(C)N(c1cc2c(cc1F)c(=O)c(C(=O)O)cn2-c1ccc(N2CCN(C)CC2)cn1)C(C)C	inactive
O=c1[nH]/c(=C/c2ccc(OCc3ccccc3)cn2)c(=O)[nH]/c1=C/c1ccc(Cl)cc1	active
O=C(NC(=O)c1ccccc1[N+](=O)[O-])Nc1ccc(Oc2ncc(Cl)cn2)c([N+](=O)[O-])c1	active
Cc1ccc(/C=N/NS(=O)(=O)c2ccccc2)cc1	inactive
CCNC(=S)NNC(=O)C12CC3CC(CC(C3)C1)C2	inactive

###

System: HCC 2998
method: NCI tumour cell line growth inhibition, 48 h
Calls of active or inactive are those of the source. No stated cut-off is given here; in the data, active = GI50 up to about 1.1 µM and inactive = higher.
property: GI50

compound	assayedTarget	measuredResult
COC(=O)c1c(O)c2c(c3c1OC(C)(C)CC3)OC(C)(C)CC2	HCC 2998	16.4 µM (inactive)
COc1cn2c(cc1=O)COc1ccc(-c3ccccc3)cc1-2	HCC 2998	46.9 µM (inactive)
O=[N+]([O-])c1ccc(-c2noc(-c3ccccc3)c2C2=NCCN2)cc1	HCC 2998	> 100 µM (inactive)
COc1ccc2c(c1)CC[C@@H]1C2CC[C@]2(C)C(=O)N(CCN(C)C)C(=O)CC12 (stereo not given in full)	HCC 2998	> 100 µM (inactive)
c1ccc(CSc2nc(N3CCCCC3)c3cn[nH]c3n2)cc1	HCC 2998	18.7 µM (inactive)
COc1ccc([C@H]2[C@H]3COC(=O)[C@H]3C(C#N)=C3Sc4ccccc4N32)cc1	HCC 2998	44.3 µM (inactive)
COc1ccc(C2c3cc4c(cc3OC(NNS(=O)(=O)c3ccc(C)cc3)C2C)OCO4)cc1 (stereo not given)	HCC 2998	> 100 µM (inactive)
O=c1[nH]/c(=C/c2ccc(OCc3ccccc3)cn2)c(=O)[nH]/c1=C/c1ccc(Cl)cc1	HCC 2998	2.52 µM (inactive)
Oc1nc2nc3ccccc3nc2nc1O	HCC 2998	> 100 µM (inactive)
O=C1C(=Cc2cccs2)C(=O)N(CCc2ccccc2)S(=O)(=O)N1CCc1ccccc1	HCC 2998	> 50 µM (inactive)
COc1cc(CC2C(=O)OCC2[C@@H](OC(C)=O)c2ccc3c(c2)OCO3)c(Br)c(OC)c1OC (stereo not given in full)	HCC 2998	98.4 µM (inactive)
CC1=C2CC3=C(C)C(=O)O[C@H]3C[C@@H](C)[C@@H]2CC1 [AMERICANOLIDE D]	HCC 2998	> 100 µM (inactive)
CC(=O)OC1OC(c2ccoc2)C[C@@]12C1CCC3O[C@]3(C)[C@]1(C)[C@H](OC(C)=O)[C@H](OC(C)=O)[C@H]2C (stereo not given in full)	HCC 2998	> 37.5 µM (inactive)
CCOC(=O)C(NC(=O)CC)(Nc1ccccc1OC)C(F)(F)F (stereo not given)	HCC 2998	> 100 µM (inactive)
Cc1c2c(cc3c1[nH]c1ccccc13)C=NCC2	HCC 2998	21.5 µM (inactive)
CC(NC(=O)OC(C)(C)C)C(=O)NC(Cc1ccccc1)C(=O)NCC(=O)ON=C1CCCC1 (stereo not given)	HCC 2998	89.7 µM (inactive)
CCN(CC)CCNc1ccc2ncn3c4c(OC)ccc(OC)c4c(=O)c1c23	HCC 2998	15.3 µM (inactive)
O=c1[nH]nc(-c2ccccc2)n1/N=C/c1c[nH]c2ccccc12	HCC 2998	> 100 µM (inactive)
O=C(CC1(O)C(=O)Nc2c(Cl)cc(Cl)cc21)c1ccc(F)cc1 (stereo not given)	HCC 2998	40 µM (inactive)
Cc1ccc(S(=O)(=O)NC(=O)Nc2nc[nH]n2)cc1	HCC 2998	> 100 µM (inactive)
